test system: mice; experiment: Hypothermia with apomorphine (16 mg/kg i.p.); type: in vivo; details: 9 μmols/kg, 30 minutes before apomorphine 16 mg/kg i.p.
Please provide measured inhibiting effect vis-a-vis hypothermia for the entries that follow.
Value expressed in %; do not type the unit.

Provide measured inhibiting effect vis-a-vis hypothermia value, entry: Fc1ccc(OC[C@@H]2CNCCO2)c2c1CCCN2 [Example 2β]
-21

Provide measured inhibiting effect vis-a-vis hypothermia value, entry: Fc1cc2c(c(OCC3CNCCO3)c1)NCCC2 (racemic) [Example 1]
-46

Provide measured inhibiting effect vis-a-vis hypothermia value, entry: Fc1ccc(OCC2CNCCO2)c2c1CCCN2 (racemic) [Example 2]
-29
